B1: glmS ribozyme (parent)
chain: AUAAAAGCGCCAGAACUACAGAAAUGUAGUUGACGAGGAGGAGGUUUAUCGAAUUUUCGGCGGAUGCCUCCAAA

Variants of: B1
EXPERIMENT_NOTES: self-cleavage kobs at 640 uM GlcN6P; higher = faster cleavage; RNA array
EXPERIMENTAL_PARAMETERS: with glucosamine-6-phosphate
This sample holds only a part of the variants without activity.
MEASURE: self-cleavage kobs at 640 uM GlcN6P

Asked: Please report the recorded self-cleavage kobs at 640 uM GlcN6P for A14G G32C G63C G66U U69G .
Given back: < 1e-05 s⁻¹

Asked: What about A39G A42U A64C ?
Given back: < 1e-05 s⁻¹

Asked: And what about the variant G38U G43C A53U ?
Given back: < 1e-05 s⁻¹

Asked: Again, but for A42C U54A
Given back: < 1e-05 s⁻¹

Asked: # repeat for C11A A33G G63A G66U
Given back: < 1e-05 s⁻¹

Asked: Another variant to look at: A6U G32C
Given back: < 1e-05 s⁻¹

Asked: And for C34A A64C ?
Given back: < 1e-05 s⁻¹

Asked: Thanks! And A24C A52U G59A ?
Given back: < 1e-05 s⁻¹

Asked: Also G37C G62U C68U , if possible.
Given back: < 1e-05 s⁻¹

Asked: What about C16A G60U ?
Given back: < 1e-05 s⁻¹

Asked: G7A G60A ?
Given back: < 1e-05 s⁻¹

Asked: Okay, and A6G U31C G59A ?
Given back: < 1e-05 s⁻¹

Asked: Record: C34U G41C G59A A64G
Given back: < 1e-05 s⁻¹

Asked: Subsequent entry: U46G C50U A53C A64U
Given back: < 1e-05 s⁻¹

Asked: Also A6C G9U A52G , if possible.
Given back: < 1e-05 s⁻¹

Asked: Would you mind doing A6C C68G as well?
Given back: < 1e-05 s⁻¹

Asked: Quick one: A14C G60A
Given back: < 1e-05 s⁻¹

Asked: Proceed to U54A C71A
Given back: 0.000818 s⁻¹

Asked: Entry to check: C10G C11G A33U C68G
Given back: 4.85e-05 s⁻¹

Asked: Now the same for C8G G38A C58G C67G
Given back: 0.000538 s⁻¹

Asked: Another variant to check: G37A G51A
Given back: < 1e-05 s⁻¹

Asked: Consider next the variant G13U C71G in the same way.
Given back: 3.7e-05 s⁻¹

Asked: Again, but for A6G U49A
Given back: < 1e-05 s⁻¹

Asked: Same for C67A C71G
Given back: 6.96e-05 s⁻¹

Asked: Also, C16U U31C G32C G44A U49G C61G U65A please.
Given back: < 1e-05 s⁻¹

Asked: Another variant to look at: G9U A15C
Given back: < 1e-05 s⁻¹

Asked: What do you have for C11A G59A C61G C70A ?
Given back: 0.000163 s⁻¹

Asked: Let us now turn to G13U G63A C71U
Given back: < 1e-05 s⁻¹

Asked: And the next one, G40C U54C U56A ?
Given back: 0.000313 s⁻¹

Asked: // repeat for G37A G41A A42C U46C and report
Given back: < 1e-05 s⁻¹

Asked: Item: G7A G37A
Given back: < 1e-05 s⁻¹

Asked: Entry A6U G9C A52U C67A C70U please
Given back: < 1e-05 s⁻¹

Asked: Entry to check: G9C C10U G13U
Given back: < 1e-05 s⁻¹

Asked: Queued: C11A U30C G62A
Given back: < 1e-05 s⁻¹

Asked: // repeat for A14C C71U and report
Given back: 0.000938 s⁻¹

Asked: Now consider G41U C71G and answer again.
Given back: 2.64e-05 s⁻¹

Asked: Please answer likewise for A52G
Given back: 0.000385 s⁻¹

Asked: Next record, please: U31C U55A
Given back: 0.00126 s⁻¹

Asked: Now give it for A12C A42U too.
Given back: 6.67e-05 s⁻¹

Asked: Thanks! And C8A C11U G13A C71U ?
Given back: < 1e-05 s⁻¹

Asked: Now this one: U30G A36U A42C A64U C67G
Given back: < 1e-05 s⁻¹

Asked: Try this variant too: G43C U46G
Given back: < 1e-05 s⁻¹

Asked: Field entry: A15G C16A U30C
Given back: 0.000332 s⁻¹

Asked: Please give the result for A39U A53C too.
Given back: 0.000759 s⁻¹

Asked: Follow-up entry: C16A U31C A33G C34A A52U C68U
Given back: < 1e-05 s⁻¹

Asked: Consider next the variant C50U G51A in the same way.
Given back: < 1e-05 s⁻¹

Asked: What do you get for C10G G32U C34U G40U G41C ?
Given back: < 1e-05 s⁻¹

Asked: Now try U54C G63U .
Given back: < 1e-05 s⁻¹

Asked: Record: C8U G32C
Given back: < 1e-05 s⁻¹

Asked: // repeat for A42U A48G and report
Given back: < 1e-05 s⁻¹

Asked: Here is the next variant: G29C G44A G60A A64G
Given back: < 1e-05 s⁻¹

Asked: And then A6G G9A A39C A42U U46A A53U C68U C71G , what is it?
Given back: < 1e-05 s⁻¹

Asked: // repeat for G66U C67A and report
Given back: 0.0005 s⁻¹

Asked: Same read-out for A14U U31A U47A ?
Given back: 0.00172 s⁻¹

Asked: Now consider G7C A42G .
Given back: < 1e-05 s⁻¹

Asked: Same question, C8A A36G this time
Given back: < 1e-05 s⁻¹

Asked: Another variant: C58G A64C C67U
Given back: 7.21e-05 s⁻¹

Asked: For A42C A64U U69G then?
Given back: 4.76e-05 s⁻¹

Asked: What about this variant? C10G C11U
Given back: < 1e-05 s⁻¹

Asked: Also, G44C U57C please.
Given back: < 1e-05 s⁻¹

Asked: Continue with U45A C70G
Given back: 0.000198 s⁻¹

Asked: Next up: A52U C58U
Given back: < 1e-05 s⁻¹

Asked: Further, for U56A C58A ?
Given back: 0.000101 s⁻¹

Asked: Try C8A C50U U55C next.
Given back: < 1e-05 s⁻¹

Asked: What do you have for C8U U45A A48U C50U ?
Given back: < 1e-05 s⁻¹

Asked: Now consider G41C U45C C50U .
Given back: < 1e-05 s⁻¹

Asked: Another variant to check: A15C G66A
Given back: 0.000599 s⁻¹

Asked: Same lookup for G29U A39G U56A , please.
Given back: 0.001 s⁻¹

Asked: Try the variant G29C A39G
Given back: 0.000768 s⁻¹

Asked: What about this variant? C58U G62A
Given back: < 1e-05 s⁻¹

Asked: Continue with G29U U69G
Given back: 7.49e-05 s⁻¹

Asked: Could you do the same for C8G G32U C58U , please?
Given back: < 1e-05 s⁻¹

Asked: Try this variant too: A6G G32U G40A C61G
Given back: < 1e-05 s⁻¹

Asked: Moving on to the next variant: A6C A53U C70U
Given back: 6.59e-05 s⁻¹

Asked: Another variant to check: G32A A42U C70A
Given back: < 1e-05 s⁻¹

Asked: Then A6U G35U ?
Given back: < 1e-05 s⁻¹

Asked: Likewise for C11U A42U G43U A53G C68G ?
Given back: 0.000213 s⁻¹

Asked: What do we get for G51A G63U U65A ?
Given back: < 1e-05 s⁻¹

Asked: Try the variant G13U C16A
Given back: 3.79e-05 s⁻¹

Asked: Further, for G44A C50U C67U ?
Given back: < 1e-05 s⁻¹

Asked: Try this variant too: A12U A14G
Given back: 0.0265 s⁻¹

Asked: Same thing, different variant: C50G C58G G66U C68A
Given back: 0.000228 s⁻¹
